Tested on: LPS-induced IL-1 release from peritoneal macrophages
Experiment Summary: LPS-induced interleukin 1 release from murine peritoneal macrophages, ELISA
Format: cell-based, C57BL6/J mice
Measurement Conditions: Mus musculus, Peritoneal macrophage; [LPS] 10 ng/mL; 24 hours; read-out: EC50 (LPS-induced IL-1 release suppressed by 50%)
Quantity: pEC50
Scale for pEC50: -log10 of concentration given in mol/L; no unit attached.

Q: Entry O=S(=O)(O)c1ccc2cc(O)c(O)cc2c1 [Compound 6, 6,7-dihydroxynaphthalene-2-sulfonic acid] : reported pEC50 = ?
A: 4.57

---

EC50: recorded values
Test system: antigen-specific T cell activation (splenic T lymphocytes from mBSA-immunised mice)
Experiment Summary: antigen-specific (mBSA) activation of splenic T lymphocytes in vitro, 3H-thymidine incorporation
Format: cell-based, C57BL6/J mice
Measurement Conditions: Mus musculus, T-cell, mBSA 10 μg/ml; read-out: EC50 (T cell activation suppressed by 50% compared to vehicle-only-treated cells)
Number in µM, nothing else.

Answered cases to consult:
1) COC(=O)c1ccc2c([N+](=O)[O-])c(O)ccc2c1
13.1
2) COC(=O)c1cc2cc(OC)ccc2cc1O [Compound 35, methyl 2-hydroxy-6-methoxy-3-naphthoate]
8.89
3) COc1cc2ccc(C(=O)O)cc2cc1OC
14.8
4) CCOC(=O)c1ccc2cc(SC(=O)N(C)C)ccc2c1OC
12.5
5) O=C(O)c1ccc2cc3c(cc2c1)OCCO3
10.2
6) O=C(O)c1ccc2cc(O)ccc2c1 [Compound 9, 6-hydroxy-2-naphthanoic acid]
72.2
7) O=C(O)c1ccc2c(S(=O)(=O)O)c(O)ccc2c1
2.39

Now examine the next entry.
Q: Requested field: EC50. Item: O=S(=O)(O)c1ccc2cc(O)c(O)cc2c1 [Compound 6, 6,7-dihydroxynaphthalene-2-sulfonic acid]
A: 21.8

---

Tested on: IL-1-induced COX-2 expression
Experiment Summary: IL-1-induced COX-2 expression in S112 human dermal fibroblasts (MIF-dependent event), flow cytometry
Format: cell-based
Measurement Conditions: Homo sapiens, Fibroblast; compound 1 uM; IL-1 0.1 ng/ml, 6 hours; S112 cells; read-out: % inhibition of IL-1-induced COX2 expression (Effect)
Quantity: inhibition at 1 µM (%)
Form entry: value (%) — number only.

Solved entries (count: 4):
1) O=C(O)c1ccc2cc(O)ccc2c1 [Compound 9, 6-hydroxy-2-naphthanoic acid]
7.5
2) O=S(=O)(O)c1ccc2cc(O)ccc2c1 [Compound 24, 6-Hydroxy-2-naphthalene-sulfonic acid]
8.2
3) O=S(=O)(O)c1ccc2cc(O)c(O)cc2c1 [Compound 6, 6,7-dihydroxynaphthalene-2-sulfonic acid]
16.4
4) COC(=O)c1ccc2cc(O)ccc2c1 [Compound 15, Methlyl-6-hydroxy-2-naphthoate]
17.3

Please find the next molecule below.
Q: Please look up its inhibition at 1 µM: COc1cc2ccc(C(=O)O)cc2cc1OC
A: 2.7
